Recorded values, source patent US20210253718A1.

# Target entity: T1, FZD1 CRD (Homo sapiens, UniProt Q9UP38)
# T1 construct: D112-P238; GPI anchor signal (C); expressed in transfected cells; host or cells: CHO cells, lentiviral pLenti-puro
# Run description: Immunofluorescence of anti-FZD5 Fab binding to CHO cells overexpressing Frizzled CRD
# Parameters: key: −: no binding; +: very weak binder; ++: weak binder; +++: good binder; ++++: very good binder
Test readout: Immunofluorescence binding, Frizzled CRD overexpressed on CHO cells: FZD1

1) Fab-2914: anti-FZD5 Fab with antibody variable region Fv-2914; CDR SEQ ID NOs: 35, 36, 53, 92, 129, 162 (antibody, V domains shown) VH: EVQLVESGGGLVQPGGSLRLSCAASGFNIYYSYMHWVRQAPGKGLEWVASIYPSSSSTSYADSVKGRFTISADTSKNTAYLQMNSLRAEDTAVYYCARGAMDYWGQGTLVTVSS VL: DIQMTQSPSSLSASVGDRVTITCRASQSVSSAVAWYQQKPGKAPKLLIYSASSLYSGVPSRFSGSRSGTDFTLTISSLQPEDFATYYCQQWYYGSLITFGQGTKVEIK
++
2) Fab-2902: anti-FZD5 Fab with antibody variable region Fv-2902; CDR SEQ ID NOs: 35, 36, 41, 80, 117, 153 (antibody, V domains shown) VH: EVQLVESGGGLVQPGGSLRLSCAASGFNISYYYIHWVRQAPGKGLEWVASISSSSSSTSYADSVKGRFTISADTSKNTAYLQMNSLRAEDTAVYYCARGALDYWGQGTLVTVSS VL: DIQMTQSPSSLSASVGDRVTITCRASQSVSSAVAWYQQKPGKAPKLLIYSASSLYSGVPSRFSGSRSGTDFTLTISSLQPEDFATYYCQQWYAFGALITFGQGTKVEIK
−
3) Fab-2925: anti-FZD5 Fab with antibody variable region Fv-2925; CDR SEQ ID NOs: 35, 36, 64, 102, 140, 172 (antibody, V domains shown) VH: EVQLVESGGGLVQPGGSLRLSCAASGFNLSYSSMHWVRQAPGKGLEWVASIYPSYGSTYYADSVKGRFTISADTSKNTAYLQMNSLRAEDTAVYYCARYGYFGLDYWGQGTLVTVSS VL: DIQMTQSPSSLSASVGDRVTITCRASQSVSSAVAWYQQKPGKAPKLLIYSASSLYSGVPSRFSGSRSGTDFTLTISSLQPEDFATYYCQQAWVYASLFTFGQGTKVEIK
++
4) Fab-2936: anti-FZD5 Fab with antibody variable region Fv-2936; CDR SEQ ID NOs: 35, 36, 75, 112, 151, 179 (antibody, V domains shown) VH: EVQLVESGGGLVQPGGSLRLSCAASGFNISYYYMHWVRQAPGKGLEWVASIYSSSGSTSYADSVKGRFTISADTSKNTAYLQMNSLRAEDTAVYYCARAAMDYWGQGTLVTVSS VL: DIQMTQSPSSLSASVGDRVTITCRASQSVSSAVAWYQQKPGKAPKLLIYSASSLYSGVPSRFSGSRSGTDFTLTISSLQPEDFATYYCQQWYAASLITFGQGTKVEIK
−
5) Fab-2928: anti-FZD5 Fab with antibody variable region Fv-2928; CDR SEQ ID NOs: 35, 36, 67, 105, 143, 175 (antibody, V domains shown) VH: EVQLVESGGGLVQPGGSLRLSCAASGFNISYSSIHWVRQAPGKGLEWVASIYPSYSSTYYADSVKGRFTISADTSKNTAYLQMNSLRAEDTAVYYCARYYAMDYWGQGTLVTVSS VL: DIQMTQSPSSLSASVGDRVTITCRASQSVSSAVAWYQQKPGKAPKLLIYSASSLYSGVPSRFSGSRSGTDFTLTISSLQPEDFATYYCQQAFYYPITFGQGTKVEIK
−
6) Fab-2921: anti-FZD5 Fab with antibody variable region Fv-2921; CDR SEQ ID NOs: 35, 36, 60, 98, 136, 162 (antibody, V domains shown) VH: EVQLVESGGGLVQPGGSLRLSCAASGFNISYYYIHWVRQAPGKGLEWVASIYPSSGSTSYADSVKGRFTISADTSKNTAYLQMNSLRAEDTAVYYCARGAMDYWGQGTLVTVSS VL: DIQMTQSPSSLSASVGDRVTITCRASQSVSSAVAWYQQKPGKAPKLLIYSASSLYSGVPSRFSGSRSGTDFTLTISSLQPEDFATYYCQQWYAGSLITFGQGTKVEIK
−
7) Fab-2924: anti-FZD5 Fab with antibody variable region Fv-2924; CDR SEQ ID NOs: 35, 36, 63, 101, 139, 153 (antibody, V domains shown) VH: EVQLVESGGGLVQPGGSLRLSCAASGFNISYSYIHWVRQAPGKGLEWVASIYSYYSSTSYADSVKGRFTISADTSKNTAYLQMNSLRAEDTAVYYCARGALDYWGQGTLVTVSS VL: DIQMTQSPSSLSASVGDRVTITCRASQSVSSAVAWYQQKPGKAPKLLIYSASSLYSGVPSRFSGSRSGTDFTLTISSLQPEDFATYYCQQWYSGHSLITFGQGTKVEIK
−
8) Fab-2926: anti-FZD5 Fab with antibody variable region Fv-2926; CDR SEQ ID NOs: 35, 36, 65, 103, 141, 173 (antibody, V domains shown) VH: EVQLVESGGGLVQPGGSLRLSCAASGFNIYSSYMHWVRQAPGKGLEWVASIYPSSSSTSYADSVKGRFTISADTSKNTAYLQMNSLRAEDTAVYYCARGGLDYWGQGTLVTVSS VL: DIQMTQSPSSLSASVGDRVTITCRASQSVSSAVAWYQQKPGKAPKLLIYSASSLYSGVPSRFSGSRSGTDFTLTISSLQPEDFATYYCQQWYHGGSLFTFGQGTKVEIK
−
